Source listed as a melting point compilation (Tetko et al.; mined from patent text by program, amines drawn as free bases though some values may be those of a salt).

RECORDED_METRIC: melting point

Before answering, review these 5 worked examples.
INSERT INTO results (molecule, recorded_metric, reading) VALUES
  ('CCCCC1(CCCC)CS(=O)(=O)c2ccc(N(C)C)cc2[C@H](c2ccc(OCCOCCC(C(=O)O)C(=O)O)cc2)[C@@H]1O', 'melting point', '120 °C'),
  ('COc1nc2cc(Cl)c(Cl)c(N3NN=CC3CCO)c2nc1OC (centres undefined)', 'melting point', '212 to 214 °C'),
  ('O=C(Nc1nc(C(Cl)(Cl)Cl)ns1)c1cc([N+](=O)[O-])cc([N+](=O)[O-])c1', 'melting point', '197 °C'),
  ('COc1ccc(CN(c2ccc(F)c(Cl)c2)c2ncnc3cc(OCCCN4CCOCC4)c([N+](=O)[O-])cc23)cc1OC', 'melting point', '129 to 132 °C'),
  ('C[C@H]1[C@H](O[Si](C)(C)C(C)(C)C)[C@H](O)C(S(=O)(=O)c2ccccc2)=C[C@H](C)[C@H]1O[Si](C)(C)C(C)(C)C', 'melting point', '81 to 83 °C');

q: Supply measured melting point of CCCCCCCCCCCCCCCCCCOc1cc(OCC(=O)O)cc(C(=O)N(CC(=O)O)CC(=O)O)c1 in your reply.
a: 134 to 136 °C

q: Read off the recorded melting point for CCOC(=O)/C(=C\Nc1cccc(OC)c1)c1ccc(OC)cc1
a: 60 to 61 °C

q: Give a short answer stating reported melting point for Cn1ncc2[nH]c3ccc(Cc4ccc(C#N)cc4)cc3c(=O)c21 .
a: 291 °C

q: Note down melting point recorded for Cc1oc(-c2ccccc2)nc1COc1ccccc1CON=C(CCC(=O)O)c1ccccc1
a: 116 to 117 °C

q: Look up and state reported melting point for CCc1cn(C)cc(-c2cccc(C(F)(F)F)c2)c1=O
a: 95.5 to 96.5 °C

q: Provide melting point value for the following molecule: CC#Cc1[nH]c(=O)n2c1CN(C)Cc1cc(F)ccc1-2
a: 219 to 220 °C

---

RECORDED_METRIC: melting point

Answered examples (3):
INSERT INTO results (compound, reading) VALUES
  ('Fc1ccc2nc[nH]c2c1', '194 to 196 °C'),
  ('Cc1noc(C)c1C(=O)Nc1ccc(-n2nc(C(F)(F)F)cc2C(F)(F)F)c(C(F)(F)F)c1', '61 to 63 °C'),
  ('O=C(O)c1ccc(O)c(NC(=O)C(CS)Cc2ccccc2)c1 (centres undefined)', '226 to 227 °C');

With those in mind, consider the next compound.
q: Report measured melting point; entry is COC(=O)CCCC(N)=O
a: 80 °C

---

RECORDED_METRIC: melting point

INSERT INTO results (compound, recorded_metric, reading) VALUES
  ('COc1cc2cc([N+](=O)[O-])ccc2c([N+](=O)[O-])c1O', 'melting point', '239 to 242 °C'),
  ('Cc1c(C(N)=O)sc2cncc(Oc3ccc(Br)cc3)c12', 'melting point', '78 to 80 °C'),
  ('Cc1nc(Sc2cc(C(=O)O)nc3ccccc23)sc1CC(=O)O', 'melting point', '219 to 220 °C'),
  ('CN(c1cccc2cc(C3=NCC4(CCN(CC#N)CC4)S3)[nH]c12)S(=O)(=O)c1cccs1', 'melting point', '211 °C'),
  ('CCCCCCCCCCCCOC(=O)NS(=O)(=O)Cl', 'melting point', '62 to 63 °C'),
  ('N=C(N)NN=Cc1cccc(Cl)c1I', 'melting point', '231 to 232 °C');

q: Provide one value: measured melting point of CSc1ccc(Cn2c(C)c(CC(=O)O)c3cc(OCc4nc5ccccc5s4)ccc32)cc1
a: 186 to 187 °C

q: Report measured melting point; entry is COc1cc2c3c(cccc3c1)C(=O)c1c(O)cccc1-2
a: 207 to 208 °C

q: Given CC(C)(N)Cc1ccc(NS(=O)(=O)c2ccccc2)cc1 , respond with its melting point.
a: 180 to 181 °C

q: Given the compound O=C(O)C1c2cc(F)ccc2-c2ccc(F)cc21 , write its reported melting point.
a: 161 to 163 °C

q: Name the recorded melting point of the item N#Cc1ccc(-c2cn(-c3ccc(I)cc3)c(S)n2)cc1 in your answer.
a: 285 to 290 °C

q: Read the entry CCC(Oc1cc(Cl)cc(Cl)c1Cl)C(=O)O (configuration not stated) and write its reported melting point.
a: 106 to 114 °C
